Origin of the recorded values: BindingDB's records for doi:10.1021/jm00014a008

assayed.system: Sodium channel protein type 5 subunit alpha (Homo sapiens, UniProt Q14524)
Sequence (Q14524 whole entry): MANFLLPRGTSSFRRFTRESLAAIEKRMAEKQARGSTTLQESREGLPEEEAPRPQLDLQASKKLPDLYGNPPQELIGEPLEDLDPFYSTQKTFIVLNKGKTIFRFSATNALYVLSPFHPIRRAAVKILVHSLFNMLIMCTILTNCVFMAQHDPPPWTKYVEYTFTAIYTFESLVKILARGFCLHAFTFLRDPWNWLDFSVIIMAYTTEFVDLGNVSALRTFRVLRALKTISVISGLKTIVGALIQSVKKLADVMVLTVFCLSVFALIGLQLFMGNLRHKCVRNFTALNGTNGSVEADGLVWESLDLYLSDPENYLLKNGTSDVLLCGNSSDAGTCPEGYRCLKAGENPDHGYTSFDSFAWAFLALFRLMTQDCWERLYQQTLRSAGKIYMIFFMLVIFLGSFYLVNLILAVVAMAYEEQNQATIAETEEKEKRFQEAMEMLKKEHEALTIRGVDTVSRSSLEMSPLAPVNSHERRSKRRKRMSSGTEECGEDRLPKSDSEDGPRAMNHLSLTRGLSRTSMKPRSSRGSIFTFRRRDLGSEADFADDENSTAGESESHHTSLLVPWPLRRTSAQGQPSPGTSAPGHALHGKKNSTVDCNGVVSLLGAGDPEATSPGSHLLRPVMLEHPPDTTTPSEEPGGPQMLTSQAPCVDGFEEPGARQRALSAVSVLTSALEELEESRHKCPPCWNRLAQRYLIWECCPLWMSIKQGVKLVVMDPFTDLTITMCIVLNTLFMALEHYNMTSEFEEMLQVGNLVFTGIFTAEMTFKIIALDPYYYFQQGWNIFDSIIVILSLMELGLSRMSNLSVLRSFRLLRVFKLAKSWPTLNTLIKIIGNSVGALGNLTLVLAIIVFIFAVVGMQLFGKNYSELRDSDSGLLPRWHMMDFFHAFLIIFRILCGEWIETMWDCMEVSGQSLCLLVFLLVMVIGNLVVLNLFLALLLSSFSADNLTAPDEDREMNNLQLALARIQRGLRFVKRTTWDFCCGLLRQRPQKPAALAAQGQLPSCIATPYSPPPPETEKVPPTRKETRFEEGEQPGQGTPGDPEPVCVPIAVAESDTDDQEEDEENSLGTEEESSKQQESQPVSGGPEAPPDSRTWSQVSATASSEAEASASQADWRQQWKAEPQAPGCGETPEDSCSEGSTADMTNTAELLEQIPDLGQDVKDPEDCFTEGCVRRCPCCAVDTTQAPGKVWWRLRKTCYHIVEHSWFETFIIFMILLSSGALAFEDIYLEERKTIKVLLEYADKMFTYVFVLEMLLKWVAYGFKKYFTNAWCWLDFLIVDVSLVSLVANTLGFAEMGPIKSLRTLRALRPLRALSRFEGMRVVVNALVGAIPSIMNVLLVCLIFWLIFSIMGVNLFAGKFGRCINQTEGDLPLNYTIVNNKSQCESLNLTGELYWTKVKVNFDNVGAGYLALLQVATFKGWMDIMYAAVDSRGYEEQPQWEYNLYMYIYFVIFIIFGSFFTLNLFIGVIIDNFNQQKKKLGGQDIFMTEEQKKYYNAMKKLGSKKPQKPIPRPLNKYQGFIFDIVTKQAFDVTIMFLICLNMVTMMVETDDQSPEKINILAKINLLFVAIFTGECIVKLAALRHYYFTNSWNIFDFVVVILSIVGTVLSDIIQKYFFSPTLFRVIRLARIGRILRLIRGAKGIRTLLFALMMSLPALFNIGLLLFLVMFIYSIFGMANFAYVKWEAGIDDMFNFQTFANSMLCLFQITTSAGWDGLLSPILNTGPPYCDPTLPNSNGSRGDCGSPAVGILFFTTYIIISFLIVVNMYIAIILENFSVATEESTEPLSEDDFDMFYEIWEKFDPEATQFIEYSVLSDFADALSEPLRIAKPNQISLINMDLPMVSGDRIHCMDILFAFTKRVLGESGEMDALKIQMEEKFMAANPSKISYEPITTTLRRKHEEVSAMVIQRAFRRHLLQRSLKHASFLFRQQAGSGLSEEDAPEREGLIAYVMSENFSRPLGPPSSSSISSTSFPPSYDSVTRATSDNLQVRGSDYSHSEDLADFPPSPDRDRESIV
assay.name: Blockade of Na+ current in frog oocytes expressing human cardiac sodium channel (HH1)
pIC50: −log10 of the molar value.
property: pIC50

Lookup: Fill in: pIC50 of CSc1ccc([C@H]2N=C(OCc3ccc(NS(C)(=O)=O)cc3)N(C)Cc3ccccc32)cc1 is ___
Found: < 4.52
